# tgt: T1, L-selectin (CD62L, SELL) (Homo sapiens, UniProt P14151 P14151:39-332)
# T1 sequence: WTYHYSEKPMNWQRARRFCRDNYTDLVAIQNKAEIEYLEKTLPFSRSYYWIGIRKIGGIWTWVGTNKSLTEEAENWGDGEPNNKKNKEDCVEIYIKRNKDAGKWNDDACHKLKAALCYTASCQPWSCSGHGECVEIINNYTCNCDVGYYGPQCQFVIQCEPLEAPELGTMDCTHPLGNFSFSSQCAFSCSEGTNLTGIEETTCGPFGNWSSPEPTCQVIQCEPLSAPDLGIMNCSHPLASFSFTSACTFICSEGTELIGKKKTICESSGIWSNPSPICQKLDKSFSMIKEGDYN
# assayInfo: BLI; +/-0.045; R2 0.9959; aptamer immobilised
# experimentalParameters: tags: recombinant human CD62L, R&D Systems; label: 5' 6-FAM or biotin (hexaethylene glycol spacer)
pKd: −log10 of the molar value.
reportedMetric: pKd

[
  {
    "binder": "CD62LApt.52 (ssDNA) DNA: TAGTCAAGGCGATAGACGAAAAACATTGTTTTCCTGGAAGGCCCAGAATCTG",
    "reportedMetric": "pKd",
    "measValue": 8.28
  }
]

Provenance of the data: patent US20260227398A1
